Listed here are compounds together with their documented inhibition at 33 %.
# target.under.test: Aβ1-40 (Homo sapiens, UniProt P05067)
# Sequence (P05067 672-711): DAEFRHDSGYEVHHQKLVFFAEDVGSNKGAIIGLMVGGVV
# experimental.details: biochemical
# particulars: read-out: % Inucl'n (percent reduction in maximum turbidity)
Peptide text beside a SMILES is read from it. * marks the point of attachment. Cholyl = C[C@H](CCC(=O)*)[C@H]1CC[C@H]2[C@@H]3[C@H](O)C[C@@H]4C[C@H](O)CC[C@]4(C)[C@H]3C[C@H](O)[C@]12C
property.measured: inhibition at 33 % (%)

# compound, property.measured, measurement.unit, recorded.number
records = [
    ("CC(C)C[C@H](NC(=O)[C@H](CCCCN)NC(=O)[C@H](CCC(N)=O)NC(=O)[C@H](Cc1c[nH]cn1)NC(=O)CC[C@@H](C)[C@H]1CC[C@H]2[C@@H]3[C@H](O)C[C@@H]4C[C@H](O)CC[C@]4(C)[C@H]3C[C@H](O)[C@]12C)C(=O)N[C@H](C(=O)N[C@@H](Cc1ccccc1)C(=O)N[C@@H](Cc1ccccc1)C(=O)O)C(C)C [PPI-348] (Cholyl-HQKLVFF-OH)", "inhibition at 33 %", "%", 70),
    ("CC(C)C[C@H](NC(=O)[C@H](CCCCN)NC(=O)[C@H](CCC(N)=O)NC(=O)[C@H](Cc1c[nH]cn1)NC(=O)CC[C@@H](C)[C@H]1CC[C@H]2[C@@H]3[C@H](O)C[C@@H]4C[C@H](O)CC[C@]4(C)[C@H]3C[C@H](O)[C@]12C)C(=O)N[C@H](C(=O)N[C@@H](Cc1ccccc1)C(=O)N[C@@H](Cc1ccccc1)C(N)=O)C(C)C [PPI-315] (Cholyl-HQKLVFF-NH2)", "inhibition at 33 %", "%", 5),
    ("CC(C)C[C@H](NC(=O)CC[C@@H](C)[C@H]1CC[C@H]2[C@@H]3[C@H](O)C[C@@H]4C[C@H](O)CC[C@]4(C)[C@H]3C[C@H](O)[C@]12C)C(=O)N[C@H](C(=O)N[C@@H](Cc1ccccc1)C(=O)N[C@@H](Cc1ccccc1)C(=O)O)C(C)C [PPI-380]", "inhibition at 33 %", "%", 72),
    ("CC(C)C[C@H](NC(=O)CC[C@@H](C)[C@H]1CC[C@H]2[C@@H]3[C@H](O)C[C@@H]4C[C@H](O)CC[C@]4(C)[C@H]3C[C@H](O)[C@]12C)C(=O)N[C@H](C(=O)N[C@@H](Cc1ccccc1)C(=O)N[C@@H](Cc1ccccc1)C(=O)N[C@@H](CCCCN)C(=O)O)C(C)C [PPI-407] (Cholyl-LVFFK-OH)", "inhibition at 33 %", "%", 100),
]

---

Listing of entries alongside the reported inhibition at 100 %.
# target.under.test: Aβ1-40 (Homo sapiens);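 also: Aβ nucleation assay tracking fiber polymerization from monomer by turbidity (light scattering), shaken continuously in 96-well plates, read every 15 min over 5 h, compared with compound-free control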
# experimental.details: biochemical
# particulars: read-out: % Inucl'n (percent reduction in maximum turbidity)
Numbered stars: 1 amine (or outer) side, 2 acyl side, 3 side chain; on linkers, the order of the positions; unused ones are H or OH. Square brackets hold non-standard residues; d marks the D form. Peptide text beside a SMILES is read from it. * marks the point of attachment. Cholyl = C[C@H](CCC(=O)*)[C@H]1CC[C@H]2[C@@H]3[C@H](O)C[C@@H]4C[C@H](O)CC[C@]4(C)[C@H]3C[C@H](O)[C@]12C; X2 = O=C(C1(O)C[C@H](O)[C@@H](N[*:1])[C@H]([C@H](O)[C@H](O)CO)O1)[*:2]; Tyr(3-I) = N[C@@H](Cc1ccc(O)c(I)c1)C(=O)O
property.measured: inhibition at 100 %

# molecule, target.under.test, result
records = [
    ("CC(C)C[C@H](NC(=O)[C@@H](NC(=O)[C@H](Cc1ccccc1)NC(=O)[C@H](Cc1ccccc1)NC(=O)CC[C@@H](C)[C@H]1CC[C@H]2[C@@H]3[C@H](O)C[C@@H]4C[C@H](O)CC[C@]4(C)[C@H]3C[C@H](O)[C@]12C)C(C)C)C(=O)O [PPI-430] (Cholyl-FFVL-OH)", "Aβ1-40 (Homo sapiens)", "33%"),
    ("CC(C)[C@H](NC(=O)[C@@H](NC(=O)[C@H](CCCCN)NC(=O)CC[C@@H](C)[C@H]1CC[C@H]2[C@@H]3[C@H](O)C[C@@H]4C[C@H](O)CC[C@]4(C)[C@H]3C[C@H](O)[C@]12C)[C@@H](C)O)C(=O)N[C@@H](Cc1ccccc1)C(=O)N[C@@H](Cc1ccccc1)C(=O)O [PPI-375] (Cholyl-KTVFF-OH)", "Aβ1-40 (Homo sapiens)", "18%"),
    ("CC(C)C[C@H](NC(=O)[C@@H](NC(=O)[C@H](Cc1ccccc1)NC(=O)[C@H](CCCCN)NC(=O)[C@H](Cc1ccccc1)NC(=O)CC[C@@H](C)[C@H]1CC[C@H]2[C@@H]3[C@H](O)C[C@@H]4C[C@H](O)CC[C@]4(C)[C@H]3C[C@H](O)[C@]12C)C(C)C)C(=O)O [PPI-372] (Cholyl-FKFVL-OH)", "Aβ1-40 (Homo sapiens)", "45%"),
    ("CC(C)C[C@H](NC(=O)CC[C@@H](C)[C@H]1CC[C@H]2[C@@H]3[C@H](O)C[C@@H]4C[C@H](O)CC[C@]4(C)[C@H]3C[C@H](O)[C@]12C)C(=O)N[C@H](C(=O)N[C@@H](Cc1ccccc1)C(=O)O)C(C)C", "Aβ1-40 (Homo sapiens)", "1%"),
    ("CC(C)[C@H](NC(=O)[C@H](C)NC(=O)CC[C@@H](C)[C@H]1CC[C@H]2[C@@H]3[C@H](O)C[C@@H]4C[C@H](O)CC[C@]4(C)[C@H]3C[C@H](O)[C@]12C)C(=O)N[C@@H](Cc1ccccc1)C(=O)N[C@@H](Cc1ccccc1)C(=O)N[C@@H](C)C(=O)O [PPI-388] (Cholyl-AVFFA-OH)", "Aβ1-40 (Homo sapiens)", "68%"),
    ("CC(C)C[C@H](N)C(=O)N[C@H](C(=O)N[C@@H](Cc1ccccc1)C(=O)N[C@@H](Cc1ccccc1)C(=O)N[C@@H](C)C(=O)O)C(C)C", "Aβ1-40 (Homo sapiens)", "15%"),
    ("CC(C)C[C@H](NC(=O)[C@@H](NC(=O)[C@H](Cc1ccccc1)NC(=O)[C@H](Cc1ccccc1)NC(=O)CC[C@@H](C)[C@H]1CC[C@H]2[C@@H]3[C@H](O)C[C@@H]4C[C@H](O)CC[C@]4(C)[C@H]3C[C@H](O)[C@]12C)C(C)C)C(=O)N[C@@H](C)C(=O)O [PPI-426] (Cholyl-FFVLA-OH)", "Aβ1-40 (Homo sapiens)", "100%"),
    ("CC(C)C[C@H](NC(=O)[C@@H](N)CCCCN)C(=O)N[C@H](C(=O)N[C@@H](Cc1ccccc1)C(=O)N[C@@H](Cc1ccccc1)C(=O)O)C(C)C", "Aβ1-40 (Homo sapiens)", "0%"),
    ("CC(=O)N[C@H]1[C@H]([C@H](O)[C@H](O)CO)OC(O)(C(=O)N[C@@H](CCCCN)C(=O)N[C@@H](CC(C)C)C(=O)N[C@H](C(=O)N[C@@H](Cc2ccccc2)C(=O)N[C@@H](Cc2ccccc2)C(=O)O)C(C)C)C[C@@H]1O (some centres unmarked) [PPI-373] (Ac-[X2]KLVFF-OH)", "Aβ1-40 (Homo sapiens)", "16%"),
    ("CC(C)[C@H](NC(=O)CC[C@@H](C)[C@H]1CC[C@H]2[C@@H]3[C@H](O)C[C@@H]4C[C@H](O)CC[C@]4(C)[C@H]3C[C@H](O)[C@]12C)C(=O)N[C@@H](Cc1ccccc1)C(=O)N[C@@H](Cc1ccccc1)C(=O)N[C@@H](C)C(=O)O [PPI-392] (Cholyl-VFFA-OH)", "Aβ1-40 (Homo sapiens)", "76%"),
    ("CC(C)C[C@H](NC(=O)[C@H](CCCCN)NC(=O)[C@H](CCC(N)=O)NC(=O)CC[C@@H](C)[C@H]1CC[C@H]2[C@@H]3[C@H](O)C[C@@H]4C[C@H](O)CC[C@]4(C)[C@H]3C[C@H](O)[C@]12C)C(=O)N[C@H](C(=O)N[C@@H](Cc1ccccc1)C(=O)N[C@@H](Cc1ccccc1)C(=O)O)C(C)C", "Aβ1-40 (Homo sapiens)", "100%"),
    ("CC(C)C[C@H](NC(=O)CC[C@@H](C)[C@H]1CC[C@H]2[C@@H]3[C@H](O)C[C@@H]4C[C@H](O)CC[C@]4(C)[C@H]3C[C@H](O)[C@]12C)C(=O)N[C@H](C(=O)N[C@@H](Cc1ccccc1)C(=O)N[C@@H](Cc1ccccc1)C(=O)N[C@@H](C)C(=O)N[C@@H](CCC(=O)O)C(=O)O)C(C)C [PPI-379] (Cholyl-LVFFAE-OH)", "Aβ1-40 (Homo sapiens)", "55%"),
    ("CC(C)C[C@H](NC(=O)CC[C@@H](C)[C@H]1CC[C@H]2[C@@H]3[C@H](O)C[C@@H]4C[C@H](O)CC[C@]4(C)[C@H]3C[C@H](O)[C@]12C)C(=O)N[C@H](C(=O)N[C@@H](Cc1ccccc1)C(=O)N[C@@H](C)C(=O)N[C@@H](C)C(=O)O)C(C)C [PPI-391] (Cholyl-LVFAA-OH)", "Aβ1-40 (Homo sapiens)", "40%"),
    ("CC(C)C[C@H](NC(=O)CC[C@@H](C)[C@H]1CC[C@H]2[C@@H]3[C@H](O)C[C@@H]4C[C@H](O)CC[C@]4(C)[C@H]3C[C@H](O)[C@]12C)C(=O)N[C@H](C(=O)N[C@@H](Cc1ccc(O)c(I)c1)C(=O)N[C@@H](Cc1ccccc1)C(=O)N[C@@H](C)C(=O)O)C(C)C [PPI-396] (Cholyl-LV[Tyr(3-I)]FA-OH)", "Aβ1-40 (Homo sapiens)", "100%"),
]
